# credit: patent US20240368150A1

test system: primary human T-cells; assay: Proliferation assay after 5 days (CellTiter-Glo, CD3 stimulation; PBS counter screen); type: cell-based; conditions: Homo sapiens, T-cell, 120 h, primary human T-cells, CD3 stimulation, CellTiter-Glo after 5 days; EC50 of fitted sigmoidal curve; read-out: Tcell Proliferation CD3 EC50
Record form. Attribute: pEC50. Fill in for each entry.
# pEC50: negative log10 of molar concentration; output just the value

Q: Form field: pEC50 recorded for CN(CC(F)(F)F)c1nnc(-c2ccc3c(c2)N(Cc2ccc(Cl)cc2)C(=O)[C@@H](N)CS3(=O)=O)o1 [Example 392] with primary human T-cells (enter value)
Result: 6.02

Q: Query COC(=O)N1CCC(OC)(c2nnc(-c3cc4c(cc3F)S(=O)(=O)C[C@H](N)C(=O)N4Cc3ccc(Cl)cc3)o2)CC1 [Example 132] next
Result: 6.82

Q: Lookup CS(=O)(=O)CCc1nnc(-c2cc3c(cc2F)S(=O)(=O)C[C@H](N)C(=O)N3Cc2ccc(Cl)cc2)o1 [Example 95]
Result: 5.21

Q: Again, but for CC(F)(F)CNc1nnc(-c2cc3c(cc2F)S(=O)(=O)C[C@H](N)C(=O)N3Cc2ccc(Cl)cc2)o1 [Example 502]
Result: 5.35

Q: And for Cc1ccncc1-c1nc(-c2cc3c(cc2F)S(=O)(=O)C[C@H](N)C(=O)N3Cc2ccc(Cl)cc2)no1 [Example 310] ?
Result: 5.57

Q: Repeat for the following compound: N[C@H]1CS(=O)(=O)c2cc(F)c(-c3nnc(C4CNCC(F)(F)C4)o3)cc2N(Cc2ccc(Cl)cc2)C1=O (stereo partly drawn) [Example 160]
Result: 6.42

Q: How about this compound: CC(C)(C)NC(=O)c1nnc(-c2cc3c(cc2F)S(=O)(=O)C[C@H](N)C(=O)N3Cc2ccc(Cl)cc2)o1 [Example 90]
Result: 5.63

Q: Then this compound: CC(C)(C)n1nnc(-c2cc3c(cc2F)S(=O)(=O)C[C@H](N)C(=O)N3Cc2ccc(F)cc2)n1 [Example 32]
Result: 6.09

Q: Consider next the compound CC(C)(C)c1nnc(-c2cc3c(cc2F)S(=O)(=O)C[C@H](N)C(=O)N3Cc2cnc(C3CC3)nc2)o1 [Example 238] in the same way.
Result: 5.51

Q: Same question for COC(=O)NC(C(F)(F)F)C(C)(C)c1nnc(-c2cc3c(cc2F)S(=O)(=O)C[C@H](N)C(=O)N3Cc2ccc(Cl)cc2)o1 (stereo partly drawn) [Example 137] please.
Result: 6.51

Q: Here is the next compound: N[C@H]1CS(=O)(=O)c2cc(F)c(-c3nc4n(n3)CCNC4C(F)(F)F)cc2N(Cc2ccc(OC(F)(F)F)cc2)C1=O (stereo partly drawn) [Example 288]
Result: 5.37

Q: Try the compound CC(C)(C)c1nnc(-c2cc3c(cc2F)S(=O)(=O)C[C@H](N)C(=O)N3Cc2ccc(OC3CCCC3)nc2)o1 [Example 248]
Result: 6.36

Q: Consider next the compound N[C@H]1CS(=O)(=O)c2cc(F)c(-c3nnc(C4CC4)o3)cc2N(Cc2ccc(Cl)cc2)C1=O [Example 85] in the same way.
Result: 6.63

Q: What do you have for CC(C)(C)n1nnc(-c2cc3c(cc2F)S(=O)(=O)C[C@H](N)C(=O)N3Cc2ccc(OCC3CCOCC3)cc2)n1 [Example 33] ?
Result: 5.72

Q: Cool, now COC1(c2nnc(-c3ccc4c(c3)N(Cc3ccc(Cl)cc3)C(=O)[C@@H](N)CS4(=O)=O)o2)CCOCC1 [Example 371]
Result: 5.56

Q: Quick one: Cc1nnc(-c2nnc(-c3cc4c(cc3F)S(=O)(=O)C[C@H](N)C(=O)N4Cc3ccc(OC(F)(F)F)cc3)o2)o1 [Example 60]
Result: 6.49

Q: Also, CC(C)(CO)c1nnc(-c2cc3c(cc2F)S(=O)(=O)C[C@H](N)C(=O)N3Cc2ccc(Cl)cc2)o1 [Example 86] please.
Result: 6.11

Q: Quick one: COC(=O)N1CC2CC2(c2nnc(-c3cc4c(cc3F)S(=O)(=O)C[C@H](N)C(=O)N4Cc3ccc(Cl)cc3)o2)C1 (stereo partly drawn) [Example 183]
Result: 6.47

Q: Would you mind doing CC(C)(C)Nc1nnc(-c2cc3c(cc2F)S(=O)(=O)C[C@H](N)C(=O)N3Cc2ccc(Cl)cc2)o1 [Example 488] as well?
Result: 6.45

Q: // same read-out, input: CC(C)(C)n1nnc(-c2ccc3c(c2)N(Cc2ccc(OC(F)(F)F)cc2)C(=O)[C@@H](N)CS3(=O)=O)n1 [Example 31]
Result: 6.56

Q: And what about the compound CC(C)(C#N)c1nnc(-c2ccc3c(c2)N(Cc2ccc(OC(F)(F)F)cc2)C(=O)[C@@H](N)CS3(=O)=O)o1 [Example 420] ?
Result: 5.80

Q: Try this compound next: N[C@H]1CS(=O)(=O)c2cc(F)c(-c3nnc(C4CN(CCO)CC(F)(F)C4)o3)cc2N(Cc2ccc(Cl)cc2)C1=O (stereo partly drawn) [Example 152]
Result: 6.26

Q: Try this compound too: CC(C)(C)n1ccc(-c2cc3c(cc2F)S(=O)(=O)C[C@H](N)C(=O)N3Cc2ccc(Cl)cc2)n1 [Example 287]
Result: 5.66

Q: # repeat for COC(=O)N1CCC(C)(c2nnc(-c3cc4c(cc3F)S(=O)(=O)C[C@H](N)C(=O)N4Cc3ccc(Cl)cc3)o2)CC1 [Example 171]
Result: 7.26

Q: Now consider CC1(Nc2nnc(-c3ccc4c(c3)N(Cc3ccc(Cl)cc3)C(=O)[C@@H](N)CS4(=O)=O)o2)CC(F)(F)C1 [Example 406] .
Result: 5.73
